Value source: the supplement of paper PMC10883282

# System: RD
# PROTOCOL: relative viability vs DMSO control (72 h) (fraction); higher = more viable cells
# CONDITION: 3.333 µM
Flag rule - relative viability less than 0.9 flags yes (1); the remaining entries get no (0).

COMPOUND: CNC(=O)c1c(C)oc2cc(Oc3ncnc4cc(OC)c(OC)cc34)ccc12 [Fruquintinib]
CATEGORY: no (0)

COMPOUND: Cc1cc(F)c(C(=O)Nc2cccc(-c3nncn3C(C)C)n2)cc1-n1cnc(C2CC2)c1 [Selonsertib]
CATEGORY: no (0)

COMPOUND: C[C@@H]1CN(C(=O)c2ccc(NC(=O)c3cc(O[C@H](C)c4c(Cl)ccc(F)c4Cl)c(N)nn3)cc2)C[C@H](C)N1 [Ensartinib]
CATEGORY: yes (1)

COMPOUND: O=C(c1ccc(F)c(F)c1Nc1ccc(I)cc1F)N1CC(O)([C@@H]2CCCCN2)C1 [Cobimetinib]
CATEGORY: yes (1)

---

# Tested on: VA-ES-BJ
# PROTOCOL: relative viability vs DMSO control (72 h) (fraction); higher = more viable cells
# CONDITION: 0.00051 µM
This section presents compounds with their documented relative viability values.
READOUT_TYPE: relative viability

COMPOUND: C=CC(=O)N1CCC(CNc2ncnc(N)c2-c2ccc(Oc3ccccc3)cc2)CC1
NUMERIC_VALUE: 1.08

COMPOUND: CNC(=O)c1cccc2cc(Oc3ccnc4cc(OCC5(N)CC5)c(OC)cc34)ccc12
NUMERIC_VALUE: 1.07

COMPOUND: O=C(/C=C\n1cnc(-c2cc(C(F)(F)F)cc(C(F)(F)F)c2)n1)NNc1cnccn1 [Selinexor]
NUMERIC_VALUE: 1.09

COMPOUND: COc1cc2ncnc(Nc3ccc(F)c(Cl)c3)c2cc1OCCCN1CCOCC1
NUMERIC_VALUE: 1.05

COMPOUND: O=C(c1ccc(F)c(F)c1Nc1ccc(I)cc1F)N1CC(O)([C@@H]2CCCCN2)C1
NUMERIC_VALUE: 1.07

---

# Test system: SYO-1
# PROTOCOL: relative viability vs DMSO control (72 h) (fraction); higher = more viable cells
# CONDITION: 10 µM

CHEM_SMILES: C=CC(=O)N1CCC(CNc2ncnc(N)c2-c2ccc(Oc3ccccc3)cc2)CC1
MEASURED_ON: SYO-1
relative viability: 0.894
//
CHEM_SMILES: COc1cc2ncnc(Nc3ccc(F)c(Cl)c3)c2cc1OCCCN1CCOCC1
MEASURED_ON: SYO-1
relative viability: 0.104
//
CHEM_SMILES: CS(=O)(=O)CCNCc1ccc(-c2ccc3ncnc(Nc4ccc(OCc5cccc(F)c5)c(Cl)c4)c3c2)o1
MEASURED_ON: SYO-1
relative viability: 0.165
//
CHEM_SMILES: COC(=O)c1ccc2c(c1)NC(=O)/C2=C(\Nc1ccc(N(C)C(=O)CN2CCN(C)CC2)cc1)c1ccccc1
MEASURED_ON: SYO-1
relative viability: 0.099
//
CHEM_SMILES: CN(C)CCCOc1ccc(-c2ccc3ncc4c(c3c2)n(C2CCOCC2)c(=O)n4C)cn1
MEASURED_ON: SYO-1
relative viability: 0.259

---

# System: G401
# PROTOCOL: relative viability vs DMSO control (72 h) (fraction); higher = more viable cells
# CONDITION: 0.1235 µM

COMPOUND: O=C(c1ccc(F)c(F)c1Nc1ccc(I)cc1F)N1CC(O)([C@@H]2CCCCN2)C1
relative viability: 0.786
--
COMPOUND: Cc1[nH]c(/C=C2\C(=O)Nc3ccccc32)c(C)c1CCC(=O)O [Orantinib]
relative viability: 1.06
--
COMPOUND: Cc1cc(F)c(C(=O)Nc2cccc(-c3nncn3C(C)C)n2)cc1-n1cnc(C2CC2)c1
relative viability: 1.01
--
COMPOUND: COc1cc(N2CCC(N3CCN(C)CC3)CC2)ccc1Nc1ncc(Cl)c(Nc2ccccc2P(C)(C)=O)n1
relative viability: 0.923
--
COMPOUND: CO[C@H]1C[C@@H]2CC[C@@H](C)[C@@](O)(O2)C(=O)C(=O)N2CCCC[C@H]2C(=O)O[C@H]([C@H](C)C[C@@H]2CC[C@@H](OC(=O)C(C)(CO)CO)[C@H](OC)C2)CC(=O)[C@H](C)/C=C(\C)[C@@H](O)[C@@H](OC)C(=O)[C@H](C)C[C@H](C)/C=C/C=C/C=C/1C
relative viability: 0.665
--
COMPOUND: CCS(=O)(=O)N1CC(CC#N)(n2cc(-c3ncnc4[nH]ccc34)cn2)C1
relative viability: 0.965
--
COMPOUND: CN(C)C(=O)c1cc2cnc(Nc3ccc(N4CCNCC4)cn3)nc2n1C1CCCC1
relative viability: 0.898
--
COMPOUND: COC(=O)c1ccc2c(c1)NC(=O)/C2=C(\Nc1ccc(N(C)C(=O)CN2CCN(C)CC2)cc1)c1ccccc1
relative viability: 0.977

---

This section presents compounds with their documented relative viability values.
# System: VA-ES-BJ
# PROTOCOL: relative viability vs DMSO control (72 h) (fraction); higher = more viable cells
# CONDITION: 0.00457 µM

COMPOUND: Cc1cc(F)c(C(=O)Nc2cccc(-c3nncn3C(C)C)n2)cc1-n1cnc(C2CC2)c1 [Selonsertib]
relative viability: 0.972
//
COMPOUND: O=S(=O)(c1cccc2c(O)nccc12)N1CCCNCC1 [Hydroxyfasudil]
relative viability: 1.08
//
COMPOUND: COc1cc(Nc2ncc3c(n2)-c2ccc(Cl)cc2C(c2c(F)cccc2OC)=NC3)ccc1C(=O)O [Alisertib]
relative viability: 0.992

---

# System: HT1080
# PROTOCOL: relative viability vs DMSO control (72 h) (fraction); higher = more viable cells
# CONDITION: 10 µM
This section presents compounds with their documented relative viability values.

COMPOUND: Cc1cc2c(F)c(Oc3ncnn4cc(OC[C@@H](C)OC(=O)[C@H](C)N)c(C)c34)ccc2[nH]1 [Brivanib_alaninate]
relative viability: 0.978
//
COMPOUND: O=C(c1ccc(F)c(F)c1Nc1ccc(I)cc1F)N1CC(O)([C@@H]2CCCCN2)C1
relative viability: 0.0054
//
COMPOUND: CN(C)C(=O)c1cc2cnc(Nc3ccc(N4CCNCC4)cn3)nc2n1C1CCCC1
relative viability: 0.978
//
COMPOUND: COc1cc(N2CCC(N3CCN(C)CC3)CC2)ccc1Nc1ncc(Cl)c(Nc2ccccc2P(C)(C)=O)n1
relative viability: 0.151
//
COMPOUND: CS(=O)(=O)CCNCc1ccc(-c2ccc3ncnc(Nc4ccc(OCc5cccc(F)c5)c(Cl)c4)c3c2)o1
relative viability: 0.674
//
COMPOUND: O=C1CCc2c(Oc3ccc4c(c3)[C@@H]3[C@H](O4)[C@H]3c3nc4cc(C(F)(F)F)ccc4[nH]3)ccnc2N1
relative viability: 0.491

---

# Tested on: HT1080
# PROTOCOL: relative viability vs DMSO control (72 h) (fraction); higher = more viable cells
# CONDITION: 0.00152 µM

COMPOUND: Cc1cc2c(F)c(Oc3ncnn4cc(OC[C@@H](C)OC(=O)[C@H](C)N)c(C)c34)ccc2[nH]1 [Brivanib_alaninate]
relative viability: 1.06
--
COMPOUND: Cc1c2oc3c(C)ccc(C(=O)N[C@@H]4C(=O)N[C@H](C(C)C)C(=O)N5CCC[C@H]5C(=O)N(C)CC(=O)N(C)[C@@H](C(C)C)C(=O)O[C@@H]4C)c3nc-2c(C(=O)N[C@@H]2C(=O)N[C@H](C(C)C)C(=O)N3CCC[C@H]3C(=O)N(C)CC(=O)N(C)[C@@H](C(C)C)C(=O)O[C@@H]2C)c(N)c1=O [Dactinomycin]
relative viability: 0.991
--
COMPOUND: O=C(/C=C\n1cnc(-c2cc(C(F)(F)F)cc(C(F)(F)F)c2)n1)NNc1cnccn1 [Selinexor]
relative viability: 1.13
--
COMPOUND: CO[C@H]1C[C@@H]2CC[C@@H](C)[C@@](O)(O2)C(=O)C(=O)N2CCCC[C@H]2C(=O)O[C@H]([C@H](C)C[C@@H]2CC[C@@H](OC(=O)C(C)(CO)CO)[C@H](OC)C2)CC(=O)[C@H](C)/C=C(\C)[C@@H](O)[C@@H](OC)C(=O)[C@H](C)C[C@H](C)/C=C/C=C/C=C/1C [Temsirolimus]
relative viability: 1.05
--
COMPOUND: CN(C)C/C=C/C(=O)Nc1cc2c(Nc3ccc(F)c(Cl)c3)ncnc2cc1O[C@H]1CCOC1 [Afatinib]
relative viability: 1.1
--
COMPOUND: COc1cc(Nc2ncc3c(n2)-c2ccc(Cl)cc2C(c2c(F)cccc2OC)=NC3)ccc1C(=O)O [Alisertib]
relative viability: 1.08

---

# Tested on: RD
# PROTOCOL: standardised AUC of viability dose-response curve (72 h) (fraction (0-1)); higher = less growth inhibition (more resistant)
This section presents compounds with their documented standardised AUC values.
READOUT_TYPE: standardised AUC

COMPOUND: O=S(=O)(c1cccc2c(O)nccc12)N1CCCNCC1 [HYDROXYFASUDIL]
MEASURED_ON: RD
READOUT_TYPE: standardised AUC
NUMERIC_VALUE: 1
//
COMPOUND: CCOc1cc2ncc(C#N)c(Nc3ccc(OCc4ccccn4)c(Cl)c3)c2cc1NC(=O)/C=C/CN(C)C [NERATINIB]
MEASURED_ON: RD
READOUT_TYPE: standardised AUC
NUMERIC_VALUE: 0.775
//
COMPOUND: CCc1nc(C(N)=O)c(Nc2ccc(N3CCC(N4CCN(C)CC4)CC3)c(OC)c2)nc1NC1CCOCC1 [GILTERITINIB]
MEASURED_ON: RD
READOUT_TYPE: standardised AUC
NUMERIC_VALUE: 0.748
//
COMPOUND: CNC(=O)c1c(C)oc2cc(Oc3ncnc4cc(OC)c(OC)cc34)ccc12 [FRUQUINTINIB]
MEASURED_ON: RD
READOUT_TYPE: standardised AUC
NUMERIC_VALUE: 0.993
//
COMPOUND: Cc1c2oc3c(C)ccc(C(=O)N[C@@H]4C(=O)N[C@H](C(C)C)C(=O)N5CCC[C@H]5C(=O)N(C)CC(=O)N(C)[C@@H](C(C)C)C(=O)O[C@@H]4C)c3nc-2c(C(=O)N[C@@H]2C(=O)N[C@H](C(C)C)C(=O)N3CCC[C@H]3C(=O)N(C)CC(=O)N(C)[C@@H](C(C)C)C(=O)O[C@@H]2C)c(N)c1=O [DACTINOMYCIN]
MEASURED_ON: RD
READOUT_TYPE: standardised AUC
NUMERIC_VALUE: 0.432
//
COMPOUND: CN(C)C(=O)c1cc2cnc(Nc3ccc(N4CCNCC4)cn3)nc2n1C1CCCC1 [RIBOCICLIB]
MEASURED_ON: RD
READOUT_TYPE: standardised AUC
NUMERIC_VALUE: 0.946
